B1: ZNF449 (parent)
chain: QLTGHQRIHSGEEPHKCPECGKRF

variants of: B1; assay: protein stability index of a GFP-peptide fusion (GPS, HEK-293T) (PSI 1-6); higher = more stable; settings: c terminus: a fixed tail appended;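 further: lentivirally expressed fusions sorted by FACS into six bins by GFP to DsRed ratio, PSI derived from sequencing read proportions per bin multiplied by bin number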
MEASURED PROPERTY: protein stability index

protein stability index measured on G4Y = 3.95

protein stability index measured on E12W = 3.99

protein stability index measured on P18T = 3.98

protein stability index measured on E12D = 4.15

protein stability index measured on H9C = 4.02

protein stability index measured on G21C = 3.77

protein stability index measured on H15R = 3.76

protein stability index measured on C20V = 3.71

protein stability index measured on K16F = 3.48

protein stability index measured on T3I = 2.64

protein stability index measured on G21Q = 4.47

protein stability index measured on H5S = 3.41

protein stability index measured on C17V = 4.76

protein stability index measured on E12F = 2.54

protein stability index measured on P18G = 4.21

protein stability index measured on R23K = 5.28

protein stability index measured on P18E = 4.17

protein stability index measured on H9K = 3.81

protein stability index measured on I8S = 4.51

protein stability index measured on E12N = 4.21

protein stability index measured on E19D = 3.4

protein stability index measured on K16L = 4.48

protein stability index measured on P18N = 4.3

protein stability index measured on S10N = 3.85

protein stability index measured on Q6A = 4.67

protein stability index measured on C17Y = 4.26

protein stability index measured on H5E = 4.56

protein stability index measured on G4L = 3.83

protein stability index measured on K16N = 4.54

protein stability index measured on H5C = 4.86

protein stability index measured on E13K = 4.59

protein stability index measured on K16G = 3.97

protein stability index measured on K22F = 4.03

protein stability index measured on E13I = 3.97
